Reference source for all entries: patent US20260028424A1

molecular target: human c-Kit (SPR) (human, UniProt P10721 26-520, limits assumed); assay: SPR, single-cycle kinetics, Human C-kit
Sequence (P10721 26-520 limits assumed): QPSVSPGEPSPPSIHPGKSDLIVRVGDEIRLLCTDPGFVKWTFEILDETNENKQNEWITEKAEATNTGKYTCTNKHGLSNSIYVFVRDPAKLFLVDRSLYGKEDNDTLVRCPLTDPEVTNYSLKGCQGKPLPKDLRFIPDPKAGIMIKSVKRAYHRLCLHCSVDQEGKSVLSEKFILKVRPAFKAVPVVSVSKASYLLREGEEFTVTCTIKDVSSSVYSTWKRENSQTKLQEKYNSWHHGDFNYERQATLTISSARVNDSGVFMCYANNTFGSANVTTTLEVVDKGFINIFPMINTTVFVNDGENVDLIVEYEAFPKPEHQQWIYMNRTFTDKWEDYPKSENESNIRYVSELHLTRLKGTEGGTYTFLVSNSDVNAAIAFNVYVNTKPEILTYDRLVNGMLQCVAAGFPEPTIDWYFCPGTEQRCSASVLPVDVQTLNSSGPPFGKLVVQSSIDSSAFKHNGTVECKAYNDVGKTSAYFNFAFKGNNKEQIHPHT
Each entry below carries its recorded koff.
Could you give me the number in s⁻¹? Just the number is fine.

Below, each entry is followed by its recorded koff result.
Binder	koff (s⁻¹)
FJ2156_MH1_C x F6_12B huIgG1 KIH (bispecific antibody, V domains shown, also called MH1_C/F6.12_B) VH 1: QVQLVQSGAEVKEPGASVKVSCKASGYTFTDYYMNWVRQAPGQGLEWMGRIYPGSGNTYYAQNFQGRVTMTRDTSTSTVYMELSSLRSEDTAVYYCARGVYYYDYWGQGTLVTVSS VH 2: QVQLVQSGAEVKKPGESLKISCKGSGYRFASNWIGWVRQMPGKGLQWMGEIYPGDSNTRYSPSFQGQVTISADKSISTAYLQWSSLKASDTAMYYCARKDYYYGIMDVWGQGTTVTVSS VL: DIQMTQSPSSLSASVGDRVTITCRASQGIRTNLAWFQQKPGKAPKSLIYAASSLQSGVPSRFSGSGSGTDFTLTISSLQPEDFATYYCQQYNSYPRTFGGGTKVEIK	0.00949
MH1/F6.12 bispecific (parental, before pI engineering) (bispecific antibody, V domains shown, Knob-in-hole IgG1null bispecific with human Ckappa; also called parental bispecific MH1/F6.12) VH 1: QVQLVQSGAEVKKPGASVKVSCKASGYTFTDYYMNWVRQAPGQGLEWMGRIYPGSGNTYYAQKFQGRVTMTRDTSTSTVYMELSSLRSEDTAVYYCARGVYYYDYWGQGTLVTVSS VH 2: EVQLVQSGAEVKKPGESLKISCKGSGYRFASNWIGWVRQMPGKGLEWMGEIYPGDSNTRYSPSFQGQVTISADKSISTAYLQWSSLKASDTAMYYCARKDYYYGIMDVWGQGTTVTVSS VL: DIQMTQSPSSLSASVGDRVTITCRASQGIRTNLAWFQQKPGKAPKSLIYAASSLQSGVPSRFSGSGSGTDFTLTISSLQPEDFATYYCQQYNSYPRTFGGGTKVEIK	0.00978
MH1_C/F6.12_D bispecific (pI-engineered) (bispecific antibody, V domains shown, Knob-in-hole IgG1null bispecific with human Ckappa) VH 1: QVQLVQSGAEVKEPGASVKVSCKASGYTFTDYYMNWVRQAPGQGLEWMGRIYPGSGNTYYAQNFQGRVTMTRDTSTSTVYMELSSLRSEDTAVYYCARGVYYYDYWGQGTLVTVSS VH 2: QVQLVQSGAEVKKPGESLKISCKGSGYRFASNWIGWVRQMPGKGLEWMGEIYPGDSNTRYSPSFQGQVTISADKSISTAYLQWSRLKASDTAMYYCARKDYYYGIMDVWGQGTTVTVSS VL: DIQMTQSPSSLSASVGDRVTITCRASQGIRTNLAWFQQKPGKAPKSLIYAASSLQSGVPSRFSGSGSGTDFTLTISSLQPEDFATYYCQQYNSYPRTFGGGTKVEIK	0.00919

Turning now to a further record.
Let me know recorded koff for FJ2156_MH1_A x F6_12C huIgG1 KIH (bispecific antibody, V domains shown, also called MH1_A/F6.12_C) VH 1: EVQLVQSGAEVKKPGASVKVSCKASGYTFTDYYMNWVRQAPGQGLEWMGRIYPGSGNTYYAQKFQDRVTMTRDTSTSTVYMELSSLRSEDTAVYYCARGVYYYDYWGQGTLVTVSS VH 2: QVQLVQSGAEVKKPGESLKISCKGSGYRFASNWIGWVRQMPGKGLEWMGEIYPGDSNTRYRPSFQGQVTISADKSISTAYLQWSSLKASDTAMYYCARKDYYYGIMDVWGQGTTVTVSS VL: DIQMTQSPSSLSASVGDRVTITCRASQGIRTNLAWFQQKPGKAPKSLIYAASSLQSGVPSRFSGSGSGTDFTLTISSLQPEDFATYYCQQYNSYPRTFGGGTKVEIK , thanks. 0.0171
